Tested on: rat hepatocytes
Protocol Summary: In vitro metabolic stability in rat hepatocytes
Type: in vitro ADME
Conditions Used: 1 μM test compound, calculated from half-life
Parameter Measured: Fmax (maximal oral bioavailability) (%)

>>> print(df.to_string())
                                   compound                   parameter_measured  experimental_result
0  COc1ccc(Cc2cc(NCCC(F)(F)F)c3ncc(-c4ccc(C(=O)NC5CC5)c(C)c4)n3n2)cc1 [Comparative Example 5, reference compound]  Fmax (maximal oral bioavailability)                   35
1  Cc1cc(-c2cnc3c(NCCC(F)(F)F)cc(C4(c5cc(F)ccc5O)CC4)nn23)ccc1C(=O)NC1CC1  Fmax (maximal oral bioavailability)                   40

(a) C=C(c1cccc(OC)c1)c1cc(NCCC(F)(F)F)c2ncc(-c3ccc(C(=O)NC4CC4)c(C)c3)n2n1
(b) Cc1cc(-c2cnc3c(NCCC(F)(F)F)cc(C(C)(O)c4cccc(F)c4O)nn23)ccc1C(=O)NC1CC1 (racemic)
(c) Cc1cc(-c2cnc3c(NCCC(F)(F)F)cc(Cc4cccc(F)c4O)nn23)ccc1C(=O)NC1CC1 [Comparative Example 2, reference compound]
Qu. Put the items in sequence by Fmax (maximal oral bioavailability), from largest down. Provide the ranking by listing each label in its place in the requested order.
Ans. a, b, c

(1) Cc1cc(-c2cnc3c(NCCC(F)(F)F)cc(C(=O)c4cc(F)ccc4F)nn23)ccc1C(=O)NC1CC1
(2) Cc1cc(-c2cnc3c(NCCC(F)(F)F)cc(C(O)c4cc(F)ccc4F)nn23)ccc1C(=O)NC1CC1 (racemic)
Qu. Of 1 and 2 , which carries the smaller reported Fmax (maximal oral bioavailability) figure? Identify your selection by its label.
Ans. 2

(I) C=C(c1cccc(F)c1)c1cc(NCCC(F)(F)F)c2ncc(-c3ccc(C(=O)NC4CC4)c(C)c3)n2n1
(II) Cc1cc(-c2cnc3c(NCCC(F)(F)F)cc(C(F)(F)c4cccc(F)c4F)nn23)ccc1C(=O)NC1CC1
Qu. Could you tell me which of I and II has the lower Fmax (maximal oral bioavailability) reading? Kindly state the label of the option you pick.
Ans. I

Each recorded value in this set is attributed to patent US20160175306A1.
